# PROCEDURE SUMMARY: Identification of prototypes and metabolites in rat serum and urine by UPLC-LTQ-Orbitrap-MS2 after BF extracts
# Assay type: in vivo, SD rats
# CONDITION DETAILS: rat serum or urine after 500 mg/kg BW BF extracts, UPLC-LTQ-Orbitrap-MS2
# Text: A total of 24 male SD rats aged between 6 and 8 weeks (200–220 g) were acquired from the Laboratory Animal Center of Jiangxi University of Chinese Medicine (Nanchang, China). […] During this period, they had free access to food and water. After adaptive feeding, rats were randomly divided into three groups (n = 8), including a negative control, serum collection, and urine collection groups. […]

COMPOUND	Location
OC[C@H]1O[C@@H](Oc2cc3c(O)cc(O)cc3[o+]c2-c2cc(O)c(O)c(O)c2)[C@H](O)[C@@H](O)[C@@H]1O [Delphinidin 3-glucoside, delphinidin 3-glucoside]	S, U
O=C(O)c1ccc(O)c(OC2OC(C(=O)O)C(O)C(O)C2O)c1 (centres unmarked) [M11, PCA-3-glucuronide]	S
O=C(O)c1ccc(O[C@@H]2O[C@H](C(=O)O)[C@@H](O)[C@H](O)[C@H]2O)c(O)c1 [M13, PCA-4-glucuronide]	S, U
COc1cc(C(=O)O)ccc1O[C@@H]1O[C@H](C(=O)O)[C@@H](O)[C@H](O)[C@H]1O [M12, VA-4-glucuronide]	S
Oc1cc(O)c2cc(O)c(-c3cc(O)c(O)c(O)c3)[o+]c2c1	S, U

* * *

# PROCEDURE SUMMARY: Serum pharmacokinetics in rats after consumption of 500 mg/kg BW of BF extracts
# Type: in vivo, SD rats
# CONDITION DETAILS: male, SD; rat serum, oral 500 mg/kg BW BF extracts, 0 to 10 h, n = 8; read-out: AUC0-10
METRIC: AUC(0-t) (µM·h)

>>> df
                                   compound    metric  quantitative_readout
0  O=C(O)c1ccc(O)cc1 [4-Hydroxybenzoic acid, 4-hydroxybenzoic acid]  AUC(0-t)                0.0313

* * *

# PROCEDURE SUMMARY: Serum pharmacokinetics in rats after consumption of 500 mg/kg BW of BF extracts
# Type: in vivo, SD rats
# CONDITION DETAILS: male, SD; rat serum, oral 500 mg/kg BW BF extracts, n = 8
METRIC: Cmax

>>> print(df.to_string())
                                   compound  metric   result
0  O=C(O)c1ccc(O)cc1 [4-Hydroxybenzoic acid, 4-hydroxybenzoic acid]    Cmax  6.98 nM

* * *

# PROCEDURE SUMMARY: Serum pharmacokinetics in rats after consumption of 500 mg/kg BW of BF extracts
# Format: in vivo, SD rats
# CONDITION DETAILS: male, SD; rat serum, oral 500 mg/kg BW BF extracts, n = 8; read-out: tmax
METRIC: tmax (h)

                                   compound  metric  output_unit  quantitative_readout
0  O=C(O)c1ccc(O)cc1 [4-Hydroxybenzoic acid, 4-hydroxybenzoic acid]    tmax            h                     1
